- System: P. aeruginosa strain PAO1
- Measurement context: peptide 10 μg/ml; 20 mM Tris–HCl, pH 7.2, 1 h, 37°C; log-phase bacteria ~10^5–10^6 CFU/ml; serial dilution and plating, limit of detection 10 CFU/ml; triplicate experiments
Reported property: reduction of bacterial viability (log10-fold kill)

Seq text	Recorded result
NAGDYAGAAEQFLRWNKAGGKVLPGLVRRRA [PaP1-2]	1.2 log10-fold

Where do the numbers come from? From paper PMC8965563.
